These measurements were taken from patent US7417156B2.

As shown below, each of these molecules has a reported Log10LC50 value.
- Test system: 786-0
- procedureDetails: NCI 60 cell line panel screen (SRB)
- Format: cell-based, human
- conditionInfo: 786-0 (Renal Cancer); LC50: PG=−50
# unit: log10M | format: bare number

{"molecule": "CC1CCC2C(C)C(CC(CO)CC3OC4OC5(C)CCC6C(C)CCC(C3C)C46OO5)OC3OC4(C)CCC1C32OO4 (centres unmarked) [Compound 4, bis-trioxane primary alcohol]", "unitInfo": "log10M", "Log10LC50": "−4.31"}

Please look at the following molecule next.
Lookup: Any idea what its Log10LC50 is? The molecule is CC1CCC2C(C)C(CC(COC(=O)c3cc[n+]([O-])cc3)CC3OC4OC5(C)CCC6C(C)CCC(C3C)C46OO5)OC3OC4(C)CCC1C32OO4 (centres unmarked) [Compound 13]
Found: −4.43
